Recorded CM % Agonism AVG values for a group of binders are listed next.
# target system: ErbB4 on neonatal rat cardiomyocytes (rat) (UniProt Q62956)
# Sequence (Q62956 26-1308): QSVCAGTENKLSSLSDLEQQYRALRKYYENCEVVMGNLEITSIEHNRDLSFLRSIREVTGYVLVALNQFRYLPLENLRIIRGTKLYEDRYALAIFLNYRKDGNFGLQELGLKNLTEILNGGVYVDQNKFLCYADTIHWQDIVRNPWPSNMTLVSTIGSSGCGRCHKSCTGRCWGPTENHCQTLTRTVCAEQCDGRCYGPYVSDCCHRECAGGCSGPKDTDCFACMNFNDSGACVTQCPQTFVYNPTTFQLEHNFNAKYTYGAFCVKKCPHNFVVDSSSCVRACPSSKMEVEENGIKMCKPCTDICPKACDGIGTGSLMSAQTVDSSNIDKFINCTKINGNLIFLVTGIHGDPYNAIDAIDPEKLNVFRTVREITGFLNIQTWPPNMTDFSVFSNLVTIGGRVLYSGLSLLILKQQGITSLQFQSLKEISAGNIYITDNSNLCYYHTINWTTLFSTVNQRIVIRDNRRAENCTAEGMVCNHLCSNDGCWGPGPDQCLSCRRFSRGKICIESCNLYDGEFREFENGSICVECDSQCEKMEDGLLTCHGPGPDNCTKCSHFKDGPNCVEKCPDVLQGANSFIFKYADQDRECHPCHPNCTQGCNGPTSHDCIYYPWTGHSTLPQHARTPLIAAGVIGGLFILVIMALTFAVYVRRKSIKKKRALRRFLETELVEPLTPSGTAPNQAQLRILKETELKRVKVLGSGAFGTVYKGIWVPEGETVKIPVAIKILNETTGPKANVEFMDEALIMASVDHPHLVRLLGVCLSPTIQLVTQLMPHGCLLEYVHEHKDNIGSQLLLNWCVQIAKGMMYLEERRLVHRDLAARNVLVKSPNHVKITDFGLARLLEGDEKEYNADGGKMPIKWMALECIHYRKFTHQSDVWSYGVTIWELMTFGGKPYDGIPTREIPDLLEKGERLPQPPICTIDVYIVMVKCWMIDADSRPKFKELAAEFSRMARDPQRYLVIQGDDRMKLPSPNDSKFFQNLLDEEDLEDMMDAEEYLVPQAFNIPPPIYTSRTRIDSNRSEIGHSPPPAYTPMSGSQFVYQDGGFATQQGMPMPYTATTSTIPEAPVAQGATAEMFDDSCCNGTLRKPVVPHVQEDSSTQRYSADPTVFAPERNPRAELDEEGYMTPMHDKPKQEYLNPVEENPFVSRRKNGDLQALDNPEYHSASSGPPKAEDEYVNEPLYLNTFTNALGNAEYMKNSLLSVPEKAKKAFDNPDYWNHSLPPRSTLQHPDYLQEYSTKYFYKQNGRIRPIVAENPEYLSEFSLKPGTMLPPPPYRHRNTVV
# assay comment: cell-based or functional assay
Response body: numeric value in %, unit text excluded.

Past entries and their recorded results:
huNRG1(S177-F229)(NRGE1D) (E47V_D48T_F49R_M50L) 6xHis (ligand) SHLVKCGESHKSFCVNGGECYMVEGSSIPSRYLCKCPNEFTGDRCQVTRLASFGGGGEGGGGAGGGGHHHHHH ... 98
huNRG1(S177-Q237)(NRGE1A)::GG::huFcSEFL2 (Pb) (Fc fusion) SHLVKCAENDKSFCVNGGECFMIEGPSNPSRYLCKCPNEFTGDRCQEDFMASFYKAEELYQGGDKTHTCPPCPAPELLGGPSVFLFPPKPKDTLMISRTPEVTCVVVDVSHEDPEVKFNWYVDGVEVHNAKTKPCEEQYGSTYRCVSVLTVLHQDWLNGKEYKCKVSNKALPAPIEKTISKAKGQPREPQVYTLPPSREEMTKNQVSLTCLVKGFYPSDIAVEWESNGQPENNYKTTPPVLDSDGSFFLYSKLTVDKSRWQQGNVFSCSVMHEALHNHYTQKSLSLSPGK ... 72
huNRG1(S177-F229)(NRGE1C)::1KmodT482V, M493L)::huFcSEFL2 (Pb) (Fc fusion) SHLVKCGEKHKSFCVNGGECFMIEGPSNPSRYLCKCPNEFTGDRCQEDFMASFGSGSATGGSGSVASSGSGSATHLDKTHTCPPCPAPELLGGPSVFLFPPKPKDTLMISRTPEVTCVVVDVSHEDPEVKFNWYVDGVEVHNAKTKPCEEQYGSTYRCVSVLTVLHQDWLNGKEYKCKVSNKALPAPIEKTISKAKGQPREPQVYTLPPSREEMTKNQVSLTCLVKGFYPSDIAVEWESNGQPENNYKTTPPVLDSDGSFFLYSKLTVDKSRWQQGNVFSCSVMHEALHNHYTQKSLSLSPGK ... 75.8
huNRG1(S177-Q237)(NRGE1B)::GG::huFcSEFL2 (Pb) (Fc fusion) SHLVKCGENDKSFCVNGGECYMVEGSSIPSRYLCKCPNEFTGDRCQEDFMASFYKAEELYQGGDKTHTCPPCPAPELLGGPSVFLFPPKPKDTLMISRTPEVTCVVVDVSHEDPEVKFNWYVDGVEVHNAKTKPCEEQYGSTYRCVSVLTVLHQDWLNGKEYKCKVSNKALPAPIEKTISKAKGQPREPQVYTLPPSREEMTKNQVSLTCLVKGFYPSDIAVEWESNGQPENNYKTTPPVLDSDGSFFLYSKLTVDKSRWQQGNVFSCSVMHEALHNHYTQKSLSLSPGK ... 76

Entry huNRG1(S177-Q237)(NRGE1G)::GG::huFcSEFL2 (Pb) (Fc fusion) SHLVKCGEKHKSFCVNGGECYMVEGSSIPSRYLCKCPNEFTGDRCQNDFMASFYKAEELYQGGDKTHTCPPCPAPELLGGPSVFLFPPKPKDTLMISRTPEVTCVVVDVSHEDPEVKFNWYVDGVEVHNAKTKPCEEQYGSTYRCVSVLTVLHQDWLNGKEYKCKVSNKALPAPIEKTISKAKGQPREPQVYTLPPSREEMTKNQVSLTCLVKGFYPSDIAVEWESNGQPENNYKTTPPVLDSDGSFFLYSKLTVDKSRWQQGNVFSCSVMHEALHNHYTQKSLSLSPGK needs its CM % Agonism AVG filled in; supply it.
84
